# Measurement Notes: in vitro
# Conditions Used: human, Cytotoxicity (LC50)
Measurement Label: CC50 at 72 h (µM)
Give the number; µM is assumed, so skip it.

COCOc1cc2oc(-c3ccc(Cl)cc3)cc(=O)c2cc1CC=C(C)C: 27.2
CC(=O)c1ccc(O)c(CC=C(C)C)c1O: 25.2
O=c1ccoc2cc(O)ccc12 [Compound 10, 7-Hydroxy-4H-chromen-4-one]: 23.4

# evaluate next
Give reported CC50 at 72 h value for CC(=O)c1cc(CC=C(C)C)c(O)cc1O 34

====

# CC50 at 72 h listing for each entry below
# Measurement Notes: in vitro
# Conditions Used: human, Cytotoxicity (LC50)

CC(C)=CCc1c(O)ccc2c(=O)ccoc12: > 100 µM
CC(=O)c1ccc(O)cc1O [Compound 5, 1-(2,4-Dihydroxyphenyl)ethan-1-one]: 54 µM
CC(=O)c1cc(CC=C(C)C)c(O)c(O)c1O: < 10 µM
O=c1ccoc2ccc(O)cc12 [Compound 11, 6-Hydroxy-4H-chromen-4-one]: 28 µM
COc1cccc2c1C(=O)c1c(O)c3c(c(O)c1C2=O)C[C@@](O)(C(=O)CO)C[C@@H]3O[C@H]1C[C@H](N)[C@H](O)[C@H](C)O1 [DOX, doxorubicin, reference compound]: 0.5 µM

Give reported CC50 at 72 h value for O=c1ccoc2c(O)c(O)ccc12 [Compound 13, 7,8-Dihydroxy-4H-chromen-4-one] 43 µM

Give reported CC50 at 72 h value for CC(C)=CCc1cc2c(=O)ccoc2cc1O > 200 µM

====

# pEC50 listing for each entry below
# System: intracellular amastigotes of T. cruzi (Tulahuen strain transfected with the β-galactosidase gene)
# Measurement Notes: Anti-trypanosomal activity, β-galactosidase readout in infected U937 macrophages, 72 h
# Type: cell-based, Trypanosoma cruzi
# Conditions Used: Trypanosoma cruzi, TULAHUEN, U-937, 72 h, read-out: Trypanocidal Activity (EC50), intracellular amastigotes of T. cruzi Tulahuen in U937 macrophages, 72 h; average ± SD (SEM)
pEC50: −log10 of the molar value.

Here are 3 compounds together with their reported answers.
CC(=O)c1cc(CC=C(C)C)c(O)cc1O: < 4.77
COCOc1cc2oc(-c3ccc(OC)cc3)cc(=O)c2cc1CC=C(C)C: < 5.01
COCOc1cc(O)c(C(=O)C=Cc2ccc(Cl)cc2)cc1CC=C(C)C: < 6.52

Give reported pEC50 value for CC(=O)c1c(O)cc(O)c(CC=C(C)C)c1O > 5.00

====

# Measurement Notes: in vitro
# Conditions Used: human, Cytotoxicity (LC50)
# CC50 at 72 h listing for each entry below

Here are 4 compounds together with their reported answers.
CC(=O)c1c(O)cc(O)cc1O [Compound 9, 1-(2,4,6-Trihydroxyphenyl)ethan-1-one]: > 200 µM
O=C(Cn1ccnc1[N+](=O)[O-])NCc1ccccc1 [BNZ, benznidazole, reference compound]: > 768 µM
CC(=O)c1cc(O)ccc1O [Compound 6, 1-(2,5-Dihydroxyphenyl)ethan-1-one]: < 10 µM
CC(=O)c1c(O)ccc(CC=C(C)C)c1O [Compound 16]: < 10 µM

# evaluate next
Give reported CC50 at 72 h value for CC(=O)c1ccc(O)c(O)c1O [Compound 8, 1-(2,3,4-Trihydroxyphenyl)ethan-1-one] > 200 µM
